Reference for the values: PubChem BioAssay AID1259407

# System: CCRIS mutagenicity, Ames/micronucleus/aberration tests
# test details: CCRIS mutagenicity studies
# experimental parameters: Test System: AMES SALMONELLA TYPHIMURIUM; Strain/Indicator: TA1535; Metabolic Activation: S-9; Method: STANDARD PLATE
# Source text: The CCRIS database contains chemical records with carcinogenicity, mutagenicity, tumor promotion, and tumor inhibition test results. It was developed by the National Cancer Institute (NCI). Data are derived from studies cited in primary journals, current awareness tools, NCI reports, and other sources. Test results have been reviewed by experts in carcinogenesis and mutagenesis. CCRIS provides historical information from the years 1985 - 2011. It is no longer updated. […]
The source made the active and inactive calls. How the calls were made is not given here.
The reply should be one of these categories: 1 (yes) = active, 0 (no) = inactive

| compound | class |
| --- | --- |
| CNc1ncn(C)c1C(=O)N(C)N=O | 1 (yes) |
| OC(Nc1snc2ccccc12)C(Cl)(Cl)Cl (stereo not drawn) | 0 (no) |
| C[C@@H]1O[C@H](C)[C@@H](O)[C@H](O)[C@@H]1OS(=O)(=O)O | 0 (no) |
| O=C(NC(Cc1cc(=O)[nH]c2ccccc12)C(=O)O)c1ccc(Cl)cc1 (stereo not drawn) | 0 (no) |
| Cc1c(-c2ccccc2)oc2c(C(=O)OCCN3CCCCC3)cccc2c1=O | 0 (no) |
| CN(C(=O)CCl)c1snc2ccccc12 | 0 (no) |

Task item: How did this test come out for CNC(=O)CSP(=S)(OC)OC ?
Reply: 0 (no)

Task item: How did this test come out for CNC(=O)c1c(N(C)N=O)ncn1C ?
Reply: 0 (no)

Task item: How did this test come out for CC(=O)Nc1snc2c(Cl)cc(Cl)cc12 ?
Reply: 0 (no)

Task item: How did this test come out for C[C@]12CC[C@H](OC(=O)COc3ccc(N(CCCl)CCCl)cc3)C[C@@H]1CC[C@@H]1[C@@H]2CC[C@]2(C)NC(=O)CC[C@@H]12 ?
Reply: 1 (yes)

Task item: How did this test come out for O=[N+]([O-])c1ccc2nscc2c1 ?
Reply: 1 (yes)

Task item: How did this test come out for COC(=O)c1ccccc1C(=O)OC ?
Reply: 0 (no)

Task item: How did this test come out for O=[N+]([O-])c1cccc2nscc12 ?
Reply: 0 (no)

----------
# System: CCRIS mutagenicity, Ames/micronucleus/aberration tests
# test details: CCRIS mutagenicity studies
# experimental parameters: Test System: AMES SALMONELLA TYPHIMURIUM; Strain/Indicator: TA100; Metabolic Activation: NONE; Method: STANDARD PLATE
Active and inactive are the calls of the source. No rule for the calls is given here.
The reply should be one of these categories: Y (active), N (inactive)

Answered cases to consult:
| molecule | class |
| --- | --- |
| O=S(=O)(Nc1cccc(Cl)c1)c1cccc2cccnc12 | N |
| Cc1ccc(S(=O)(=O)n2ncc(Cl)c(Cl)c2=O)cc1 | N |
| CCBr | N |
| Cc1ccc2[nH]c3c(C)ccc(C)c3c2c1 | N |
| Cc1c([N+](=O)[O-])cc(C)c2c1c1ccccc1n2C | Y |
| O=S(=O)(c1ccc(O)cc1)c1ccc(O)cc1 | N |
| COc1ccc2cc([C@H](C)C(=O)O)ccc2c1 | N |
| C(COCC1CO1)OCC1CO1 (centres undefined) | Y |
| ClCc1c2ccccc2c2ccc3cccc4ccc1c2c43 | N |
| O=NN(c1ccc([N+](=O)[O-])cc1)C1OC[C@H](O)[C@H](O)[C@H]1O (some centres undefined) | Y |

Task item: How did this test come out for CC(S)C(=O)NCC(=O)O (centres undefined) ?
Reply: N

Task item: How did this test come out for O=[N+]([O-])c1cccc2c1c([N+](=O)[O-])cc1ccccc12 ?
Reply: Y

Task item: How did this test come out for c1cc2ccc3cccc4ccc(c1)c2c34 ?
Reply: N

Task item: How did this test come out for Nc1ccc(/C=C/c2ccc(Cl)cc2)cc1 ?
Reply: N

Task item: How did this test come out for CC(=O)c1cc2c(cc1C)C(C)(C)C(C)C2(C)C (centres undefined) ?
Reply: N
